All values here come from patent US20220242846A1.

Each entry below carries its measured IC50, system: Full length wild-type cereblon CRBN (Homo sapiens).
Sequence (Q96SW2 whole entry): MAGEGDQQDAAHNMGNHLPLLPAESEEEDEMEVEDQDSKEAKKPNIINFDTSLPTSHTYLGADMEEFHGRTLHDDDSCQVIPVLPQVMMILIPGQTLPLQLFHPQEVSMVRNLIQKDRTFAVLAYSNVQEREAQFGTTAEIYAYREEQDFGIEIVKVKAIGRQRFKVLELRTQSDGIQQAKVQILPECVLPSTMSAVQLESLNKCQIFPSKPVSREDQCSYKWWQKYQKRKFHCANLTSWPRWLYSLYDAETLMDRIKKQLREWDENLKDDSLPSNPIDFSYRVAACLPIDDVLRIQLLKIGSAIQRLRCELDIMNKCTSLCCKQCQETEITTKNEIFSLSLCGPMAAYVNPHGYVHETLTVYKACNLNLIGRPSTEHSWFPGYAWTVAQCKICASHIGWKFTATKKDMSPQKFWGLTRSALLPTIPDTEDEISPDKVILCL
Assay Metric: IC50 (nM)

> print(dat)
                                   compound  unit.string   val
1  Cc1ccc(NC(=O)NCc2ccc3c(c2)C(=O)N(C2CCC(=O)NC2=O)C3)cc1 (centres unmarked) [Compound 21]           nM   622
2  Cc1cc(NC(=O)NCc2ccc3c(c2)C(=O)N(C2CCC(=O)NC2=O)C3)cc(CN2CCOCC2)c1C (centres unmarked) [Compound 118]           nM   256
3  Cc1cccc(NC(=O)NCc2ccc3c(c2)C(=O)N(C2CCC(=O)NC2=O)C3)c1C (centres unmarked) [Compound 44]           nM   747
4  CCCNC(=O)NCc1ccc2c(c1)C(=O)N(C1CCC(=O)NC1=O)C2 (centres unmarked) [Compound 14]           nM  1420
5  Nc1cccc(NC(=O)NCc2ccc3c(c2)C(=O)N(C2CCC(=O)NC2=O)C3)c1 (centres unmarked) [Compound 80]           nM   515
6  CCOc1ccc(NC(=O)NCc2ccc3c(c2)C(=O)N(C2CCC(=O)NC2=O)C3)cc1 (centres unmarked) [Compound 16]           nM   817
7  O=C1CCC(N2Cc3ccc(CNC(=O)Nc4ccc(-c5ccccc5)cc4)cc3C2=O)C(=O)N1 (centres unmarked) [Compound 71]           nM   333
8  O=C1CCC(N2Cc3ccc(CNC(=O)NC4CCCc5ccccc54)cc3C2=O)C(=O)N1 (centres unmarked) [Compound 40]           nM   566
